Hello, the source for this data is ChEMBL document CHEMBL6103654, in case you need it.

Here, each record is paired with measured bioavailability data.
- Experiment Notes: Oral bioavailability in male Sprague-Dawley rat at 2 mg/kg administered as single dose measured after 4 hrs
- Format: ADME, organism-based
- Condition Parameters: in vivo

# Line Notation, bioavailability [%]
rows = [
    ("CC(C)(N)C(=O)N[C@H](COCc1ccccc1)C(=O)N1CCC2=NN(C3CCC3)C(=O)[C@]2(Cc2ccccc2)C1", 3.3),
    ("CC(C)(N)C(=O)N[C@H](COCc1ccccc1)C(=O)N1CCC2=NN(C(F)(F)F)C(=O)[C@]2(Cc2ccccc2)C1", 44.8),
    ("CC(C)(N)C(=O)N[C@H](COCc1ccccc1)C(=O)N1CCC2=NN(C3CC3)C(=O)[C@]2(Cc2ccccc2)C1", 16.7),
    ("CC(C)(N)C(=O)N[C@H](COCc1ccccc1)C(=O)N1CCC2=NN(C3CC3)C(=O)[C@]2(Cc2ccccn2)C1", 26.2),
]
